target: UniProt:P35408; experiment: hEP4 cAMP assay (BT549 breast cancer cells, HTRF cAMP); format: cell-based; conditions: antagonistic activity; mean values where measured multiple times
I'd be grateful if you could share measured IC50 for these entries.
Give your result as the value with the unit written after it.

## Task What value of IC50 has been recorded for this entry: COc1ccc(F)c2c1cc(C)n2CCNc1cc(-c2ccc(C(=O)O)c(Oc3ccc(F)cc3)c2)ncn1 [compound 654]
## Result 313 nM

## Task Value lookup for IC50; key = Cc1cc(F)cc2c1cc(C)n2CCNc1cc(-c2ccc(-c3cncn3C)cc2)ncn1 [compound 547]
## Result 232 nM

## Task Requested read-out: IC50. Entry: COc1c(F)cc(Cl)c2c1cc(C)n2CCNc1cc(-c2cc(F)c(C(=O)O)c(SC)c2)ncn1 [compound 509]
## Result 684 nM

## Task Please report the recorded IC50 for COc1cc(F)cc2c1cc(C)n2CCNc1cc(-c2ccc(-c3ncc(F)cn3)cc2)ncn1 [Example 762] .
## Result 304 nM

## Task Could you share which IC50 value was measured for CCCc1cc(-c2cc(NCCn3c(C)cc4c(C)ccc(F)c43)ncn2)cc(F)c1C(=O)O [compound 416] ?
## Result 99 nM

## Task Quick check: IC50 of CCCc1cc(-c2cc(NCCn3c(C)cc4c(C)cc(F)cc43)ncn2)cc(F)c1C(=O)O [compound 415] ?
## Result 153 nM

## Task Suppose we examine the molecule Cc1cc(F)c(F)c2c1cc(C)n2CCNc1cc(-c2cc(Cl)c(C(=O)O)c(OCC(F)(F)F)c2)ncn1 [compound 724] ; what IC50 value has been reported?
## Result 206 nM

## Task Name the reported IC50 value associated with the molecule COc1ccc(F)c2c1cc(C)n2CCNc1cc(-c2cccc(-n3cccn3)c2)ncn1 [compound 556]
## Result 418 nM

## Task Bench note: what IC50 did CCCc1cc(-c2cc(NCCn3c(C)cc4c(OC)cc(Cl)cc43)ncn2)cc(Cl)c1C(=O)O [compound 518] show?
## Result 40 nM

## Task Consider the molecule shown here: CCOc1cc(-c2cc(NCCn3c(C)cc4c(OC)cc(Cl)cc43)ncn2)ccc1C(=O)O [compound 402] What is its recorded IC50?
## Result 159 nM

## Task GET /values?readout=IC50&item= COc1c(Cl)cc(F)c2c1cc(C)n2CCNc1cc(-c2ccc(C(=O)O)c(CC(C)C)c2)ncn1 [compound 622]
## Result 303 nM

## Task Recorded IC50 for CCOc1cc(-c2cc(NCCn3c(C)cc4c(OC)ccc(F)c43)ncn2)ccc1CNCCOC [compound 589] , please?
## Result 707 nM

## Task Name the reported IC50 value associated with the molecule CCNc1cc(-c2cc(NCCn3c(C)cc4c(F)ccc(OC)c43)ncn2)ccc1C(=O)O [compound 399]
## Result 483 nM

## Task Reported IC50, molecule COc1cc(F)cc2c1cc(C)n2CCNc1cc(-c2cccc(-n3cccn3)c2)ncn1 [compound 726] : ____
## Result 388 nM

## Task Please give the measured IC50 for this molecule: CCCOc1cc(-c2cc(NCCn3c(C)cc4c(C)cc(F)cc43)ncn2)ccc1C(=O)O [compound 439]
## Result 272 nM

## Task IC50 lookup needed for Cc1ccc(F)c2c1cc(C)n2CCNc1cc(-c2ccc(C(=O)O)c(OCC(C)C)c2)ncn1 [compound 534] , thanks.
## Result 91 nM

## Task Any idea what IC50 was measured for COc1ccc(F)c2c1cc(C)n2CCNc1cc(-c2ccc3c(c2)C(CC(C)C)NC3=O)ncn1 (racemic) [compound 474] ?
## Result 224 nM

## Task Please give the measured IC50 for this molecule: Cc1cc(F)cc2c1cc(C)n2CCNc1cc(-c2ccc3[nH]ccc3c2)ncn1 [compound 697]
## Result 77 nM

## Task I would be grateful if you could share the reported IC50 for CCCc1cc(-c2cc(NCCn3c(C)cc4c(OC)ccc(F)c43)ncn2)cc(OCC)c1C(=O)O [compound 634] .
## Result 196 nM

## Task IC50 lookup needed for CCCc1cc(-c2cc(NCCn3c(C)cc4cc(Cl)cc(F)c43)ncn2)cc(Cl)c1C(=O)O [compound 427] , thanks.
## Result 240 nM

## Task Quick check: IC50 of COc1cc(-c2cc(NCCn3c(C)cc4c(OC)ccc(F)c43)ncn2)cc(Cl)c1C(=O)O [compound 401] ?
## Result 182 nM

## Task What value of IC50 has been recorded for this entry: COc1cc(F)c(F)c2c1cc(C)n2CCNc1cc(-c2ccc(-c3oc(CCC(=O)O)nc3C)cc2)ncn1 [compound 655]
## Result 191 nM

## Task I'd like to know its IC50. The molecule in question is CCCOc1cc(-c2cc(NCCn3c(C)cc4c(OC)ccc(F)c43)ncn2)cc(F)c1C(=O)O [compound 610]
## Result 139 nM

## Task Looking for the measured IC50 of CCOc1cc(-c2cc(NCCn3c(C#N)cc4c(OC)cc(F)cc43)ncn2)ccc1C(=O)O [compound 480] , can you help?
## Result 75 nM

## Task What value of IC50 has been recorded for this entry: CCNc1cc(-c2cc(NCCn3c(C)cc4c(C)ccc(F)c43)ncn2)ccc1-c1nnn[nH]1 [compound 668]
## Result 22 nM

## Task Entry under review: COc1ccc(F)c2c1cc(C)n2CCNc1cc(-c2ccc(C(=O)O)c(OCC(C)C)c2)ncn1 [compound 616] . Reported IC50?
## Result 85 nM

## Task Dear colleague, I am looking for the recorded IC50 of the following molecule: CCOc1cc(-c2cc(NCCn3c(C)cc4c(OC)ccc(F)c43)ncn2)cc(F)c1C(=O)O [compound 490]
## Result 165 nM

## Task IC50 for COc1ccc(F)c2c1cc(C)n2CCNc1cc(-c2ccc3c(=O)[nH][nH]c3c2)ncn1 [Example 773] ?
## Result 49 nM

## Task Quick one: IC50 for Cc1nc2cc(-c3cc(NCCn4c(C)cc5c(C)ccc(F)c54)ncn3)ccc2o1 [compound 686] ?
## Result 842 nM

## Task Please report the recorded IC50 for Cc1ccc(F)c2c1cc(C)n2CCNc1cc(-c2ccc(C(=O)O)c(N3CCCC3)c2)ncn1 [compound 464] .
## Result 459 nM

## Task Any idea what its IC50 is? The molecule is Cc1cc(F)cc2c1cc(C)n2CCNc1cc(-c2ccc(-c3csc(C(=O)O)n3)cc2)ncn1 [compound 544]
## Result 178 nM

* * *

Target: PTRGER4 (EP4) (Homo sapiens (Human))
Sequence (P35408 whole entry, looked up): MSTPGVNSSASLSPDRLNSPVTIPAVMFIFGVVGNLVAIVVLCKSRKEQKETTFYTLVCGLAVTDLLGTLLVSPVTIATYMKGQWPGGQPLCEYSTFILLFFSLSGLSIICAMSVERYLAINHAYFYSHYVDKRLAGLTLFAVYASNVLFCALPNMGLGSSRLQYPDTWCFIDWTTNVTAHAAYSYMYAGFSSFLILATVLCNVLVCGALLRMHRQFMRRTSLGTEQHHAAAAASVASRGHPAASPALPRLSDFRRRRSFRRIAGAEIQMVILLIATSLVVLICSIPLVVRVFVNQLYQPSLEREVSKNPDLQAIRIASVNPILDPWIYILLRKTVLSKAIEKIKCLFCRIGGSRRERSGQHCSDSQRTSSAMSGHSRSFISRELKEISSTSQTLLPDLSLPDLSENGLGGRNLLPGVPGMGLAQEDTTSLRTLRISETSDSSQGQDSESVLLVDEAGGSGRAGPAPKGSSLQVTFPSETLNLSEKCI
Assay: hEP4 b-arrestin assay (PathHunter HEK 293 PTGER4 b-arrestin cells)
Type: cell-based
Settings: hEP4 b-arrestin assay (values without asterisk)
Procedure: The assay is using the PathHunter™ HEK 293 PTGER2 and PTGER4 b-arrestin cell lines from DiscoverX. The system is based on the Enzyme Fragment Complementation Technology. Two complementing fragments of the b-galactosidase enzyme are expressed within stably transfected cells. […] Twelve μl of reagent are transferred to the assay plate and incubate for 1 hour at room temperature in the dark. Luminescence counts are read on a BMG Fluostar Optima reader according to manufacturer's instructions. […]
For each record, write down the corresponding log10(IC50).
Values reflect log10 of reported IC50 (nM).

## Task Dear colleague, I am looking for the recorded log10(IC50) of the following molecule: COc1ccc(F)c2c1cc(C#N)n2CCNc1cc(-c2ccc(C(=O)O)c(SC(C)C)c2)ncn1
## Result 1.11

## Task Look at this molecule and give its reported log10(IC50). COc1ccc(F)c2c1cc(C#N)n2CCNc1cc(-c2ccc3[nH]c(=O)[nH]c3c2)ncn1 [Example 1000]
## Result 1.90

## Task Fill in: log10(IC50) of CCOc1cc(-c2cc(NCCn3c(C#N)cc4c(OC)ccc(F)c43)ncn2)ccc1S(N)(=O)=O is ___
## Result 1.52

## Task // lookup log10(IC50) for COc1ccc(F)c2c1cc(C#N)n2CCNc1cc(-c2ccnc(N)c2)ncn1
## Result 2.29

## Task Quick one: log10(IC50) of CCSc1cc(-c2cc(NCCn3c(C#N)cc4c(C)ccc(F)c43)ncn2)ccc1C(=O)O ?
## Result 1.43

## Task // returns reported log10(IC50) for input COc1ccc(F)c2c1cc(C#N)n2CCNc1cc(-c2cc(C(F)(F)F)c(C(=O)O)s2)ncn1
## Result 0.30

## Task Given the molecule CCOc1cc(-c2cc(NCCn3c(C)cc4c(OC)ccc(F)c43)ncn2)ccc1NCC(=O)OC , what is its reported log10(IC50)?
## Result 1.76

## Task GET /values?readout=log10(IC50)&item= CCCCOc1cc(-c2cc(NCCn3c(C)cc4c(OC)cc(F)c(F)c43)ncn2)ccc1C(=O)O
## Result 1.34

Values compiled from patent US12011444B2.
